The values you see were collected from PubChem BioAssay (NCATS).

System: W2
Assay protocol: qHTS profiling for inhibitors of Plasmodium falciparum proliferation (AID 504749); further: nearly all actives have a fitted effect of over 60% in size; further: potency means the concentration at half of the fitted maximal effect
Experimental setup: P. falciparum in erythrocytes, SYBR Green DNA, 72 h; series mostly up to 28.7 µM
Description: NIH National Institute of Allergy and Infectious Diseases [NIAID] NIH Chemical Genomics Center [NCGC] […] Because mature erythrocytes lack DNA, only Plasmodium-derived DNA is detected. NCGC Assay Protocol Summary: The SYBR Green viability assay was adapted from a method described previously (Plouffe et al., 2008). […] The following morning, fluorescence intensity at 485(14) nm excitation and 535(25) nm emission wavelengths was measured on an EnVision (Perkin Elmer) plate reader. […]
Records with an inconclusive call do not appear. Active and inactive are the calls of the source. The call rests on the fitted dose curve; in most records, active means well fitted inhibition curve with a large enough effect; inconclusive means small, poorly fitted or top-dose-only effect; inactive means flat fitted curve, though single readings scatter.
Endpoint: Potency

Some solved cases for reference:
1. C[C@@H](O)[C@H]1C(=O)N2C(C(=O)O)=C(S[C@@H]3CN[C@H](CNS(N)(=O)=O)C3)[C@H](C)[C@H]12 | inactive
2. COc1ccc(C(=O)c2ccccc2)c(O)c1 | 13.5 µM (active)
3. NC(N)=NCc1cccc(I)c1 | inactive
4. NCCNC(=O)c1ccc(Cl)cn1 | inactive
5. c1ccc(-c2nc[nH]c2-c2ccccc2)cc1 | inactive

Query :: Entry `OC(C#CCN1CCCC1)(c1ccccc1)c1ccccc1` : reported Potency = ?
Result :: 2.13 µM (active)

Query :: Consider the compound `COc1cc(O)c(C(=O)c2ccccc2)cc1S(=O)(=O)O` and give its measured Potency.
Result :: 7.57 µM (active)

Query :: Find the recorded Potency belonging to `CCOc1ccccc1C(N)=O` and report it.
Result :: inactive

Query :: I am curious: what Potency value has been reported for `CCCCCCCCCCCCCCCCO` ?
Result :: inactive

Query :: Sample `CC(=O)OC[C@H]1O[C@@H](n2ncc(=O)[nH]c2=O)[C@H](OC(C)=O)[C@@H]1OC(C)=O` — what was its Potency?
Result :: inactive

Query :: Look at this compound and give its reported Potency. `N=C(N)N1CCc2ccccc2C1`
Result :: inactive

Query :: Value lookup for Potency; key = CC1(COc2ccc(CC3SC(=O)NC3=O)cc2)CCCCC1 (stereo not drawn)
Result :: inactive

Query :: Reported Potency for `CCNC(=O)/C=C/c1cccc(Br)c1` : what is it?
Result :: inactive

Query :: Query (compound): `Cc1ncc(CO)c(C=O)c1O` ; field requested: Potency
Result :: inactive

Query :: Returns the measured Potency for the input compound. Input: `CCN(CC)CCNc1ccc(CO)c2sc3ccccc3c(=O)c12`
Result :: 0.675 µM (active)

Query :: Entry under review: `CCOC(=O)[C@H](CCc1ccccc1)N[C@@H](C)C(=O)N1[C@H](C(=O)O)C[C@H]2CCCC[C@@H]21` . Reported Potency?
Result :: inactive

Query :: Which Potency value belongs to `CCOc1ccc(NC(C)=O)cc1` ?
Result :: inactive
